- conditions: in ethanol, 313.15 K
property.measured: solubility (mole fraction)

1. COc1cc(Cl)nc(N)n1 :: 0.00733

====

- conditions: in ethanol, 318.15 K
property.measured: solubility (mole fraction)

1) COc1cc(Cl)nc(N)n1 :: 0.00886

====

- conditions: in acetone, 313.15 K
property.measured: solubility (mole fraction)

1) COc1cc(Cl)nc(N)n1 :: 0.0358

====

- conditions: in ethylbenzene, 273.15 K
property.measured: solubility (mole fraction)

1) COc1cc(Cl)nc(N)n1 :: 0.000515

====

- conditions: in toluene, 288.15 K
property.measured: solubility (mole fraction)

1. COc1cc(Cl)nc(N)n1 :: 0.00148

====

- conditions: in 1,4-dioxane, 308.15 K
property.measured: solubility (mole fraction)

1. COc1cc(Cl)nc(N)n1 :: 0.0493

====

- conditions: in methanol, 298.15 K
property.measured: solubility (mole fraction)

1) COc1cc(Cl)nc(N)n1 :: 0.00375

====

- conditions: in isopropanol, 318.15 K
property.measured: solubility (mole fraction)

1) COc1cc(Cl)nc(N)n1 :: 0.00857

====

- conditions: in acetone, 298.15 K
property.measured: solubility (mole fraction)

1. COc1cc(Cl)nc(N)n1 :: 0.0211

====

- conditions: in ethylbenzene, 303.15 K
property.measured: solubility (mole fraction)

1. COc1cc(Cl)nc(N)n1 :: 0.00238

====

- conditions: in methanol, 278.15 K
property.measured: solubility (mole fraction)

1) COc1cc(Cl)nc(N)n1 :: 0.00159

====

- conditions: in DMF, 303.15 K
property.measured: solubility (mole fraction)

1. COc1cc(Cl)nc(N)n1 :: 0.0846
